# IC50 listing for each entry below
- studySystem: 20S catalytic subunit of the proteasome (multicatalytic proteinase complex) (Bos taurus, UniProt Q32KL2)
- Construct: was purified to homogeneity from bovine brain according to published methods; from tissue; host or cells: bovine brain
- protocolDescription: 20S proteasome chymotryptic activity, fluorogenic peptide cleavage
- Assay type: biochemical, bovine
- setupConditions: 50 μM succinyl-leu-leu-val-tyr-7-amino-4-methyl coumarin, 15 minutes at 37° C, pH7.5
- Protocol: Compounds of this invention prepared according to the method of Example 1 were tested as follows. […] The chymotryptic activity of the complex is measured by the increase in fluorescence following cleavage of the substrate peptide succinyl-leucine-leucine-valine-tyrosine-7-amino-4-methyl coumarin. […] The rate of proteolysis is directly proportional to the amount of liberated aminomethylcoumarin which is measured by fluorescent spectroscopy (EX 370 nm, EM 430 nm).

Some compounds with recorded IC50:
CCCC(NC(=O)C(CC(C)C)NC(=O)CC1CC(=O)c2ccc(OC)cc21)C(N)=O (mixture of isomers); > 10 µg/mL
COc1ccc2c(c1)C(CC(=O)Nc1ccc(Cl)cn1)CC2=O (racemic); > 10 µg/mL
COc1ccc2c(c1)C(CC(=O)N1Cc3ccccc3CC1C(N)=O)CC2=O (mixture of isomers); > 10 µg/mL
COc1ccc2c(c1)C(CC(=O)NC(CO)C(=O)NC(CC(C)C)C(N)=O)CC2=O (mixture of isomers); > 10 µg/mL
COc1ccc2c(c1)C(CC(=O)NC(CC(C)C)C(=O)NC(CC(C)C)C(=O)N1CCOCC1)CC2=O (mixture of isomers); > 10 µg/mL

The reported value for COc1ccc2c(c1)C(CC(=O)NC(CC(C)C)C(=O)NC(CC(C)C)C(=O)NCc1ccc([N+](=O)[O-])cc1)CC2=O (mixture of isomers) in terms of IC50 is 10 µg/mL

Per the records, this compound ( COc1ccc2c(c1)C(CC(=O)NC(C(=O)NC(CC(C)C)C(N)=O)C(C)C)CC2=O (mixture of isomers) ) has IC50 equal to > 10 µg/mL

Query CCCC(NC(=O)CC1CC(=O)c2ccc(OC)cc21)C(N)=O (mixture of isomers) yields IC50 of > 10 µg/mL

Lookup result for COc1ccc(CNC(=O)C(CC(C)C)NC(=O)C(CC(C)C)NC(=O)CC2CC(=O)c3ccc(OC)cc32)cc1 (mixture of isomers) ; measured IC50: > 10 µg/mL

Documented IC50 of COCCCNC(=O)CC1CC(=O)c2ccc(OC)cc21 (stereo not drawn) : > 10 µg/mL

Entry COc1ccc2c(c1)C(CC(=O)NC(CC(C)C)C(=O)NCCC(C)C)CC2=O (mixture of isomers) , IC50 reported as > 10 µg/mL

IC50 in this record for COc1ccc2c(c1)C(CC(=O)NC(C(=O)NC(CC(C)C)C(=O)NCC(N)=O)C(C)C)CC2=O (mixture of isomers) : > 10 µg/mL

IC50 reported for this compound COc1ccc2c(c1)C(CC(=O)NC(C(N)=O)c1ccccc1)CC2=O (mixture of isomers) : > 10 µg/mL

Record summary for COc1ccc2c(c1)C(CC(=O)NC(CC(C)C)C(=O)NC(CC(C)C)C(=O)N1CCCCC1)CC2=O (mixture of isomers) : reported IC50 = > 10 µg/mL

// sample COc1ccc2c(c1)C(CC(=O)NC(CC(C)C)C(=O)NC(Cc1c[nH]cn1)C(N)=O)CC2=O (mixture of isomers) , its IC50 was > 10 µg/mL

Entry COc1ccc2c(c1)C(CC(=O)NC(CC(C)C)C(=O)NC(CC(C)C)C(=O)NC(C)C(N)=O)CC2=O (mixture of isomers) [Compound 125] — recorded IC50 = > 10 µg/mL
